Target: T1, human Protein S (human, UniProt P07225 42-676)
T1 sequence: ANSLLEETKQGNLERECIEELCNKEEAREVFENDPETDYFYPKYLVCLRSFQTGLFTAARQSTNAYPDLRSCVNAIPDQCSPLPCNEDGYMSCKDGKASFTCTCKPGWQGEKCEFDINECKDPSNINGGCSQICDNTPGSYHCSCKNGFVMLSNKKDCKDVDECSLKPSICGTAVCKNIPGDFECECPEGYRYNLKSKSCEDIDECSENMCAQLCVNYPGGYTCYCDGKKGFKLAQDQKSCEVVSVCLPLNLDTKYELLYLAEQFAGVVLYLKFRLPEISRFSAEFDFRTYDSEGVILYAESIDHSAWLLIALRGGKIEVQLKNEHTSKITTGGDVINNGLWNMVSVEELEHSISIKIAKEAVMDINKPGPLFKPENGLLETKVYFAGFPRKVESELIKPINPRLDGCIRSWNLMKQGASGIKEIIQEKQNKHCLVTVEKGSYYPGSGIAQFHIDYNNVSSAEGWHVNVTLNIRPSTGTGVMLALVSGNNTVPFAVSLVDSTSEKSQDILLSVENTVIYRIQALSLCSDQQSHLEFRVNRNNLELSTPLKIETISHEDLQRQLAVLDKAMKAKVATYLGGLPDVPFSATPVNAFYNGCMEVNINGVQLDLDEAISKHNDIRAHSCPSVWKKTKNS
Test: cell-based or functional assay
Reported endpoint: CAT EC50 (nM)
Express the result in nM but write the number alone.

Observe how each entry below is paired with its result.
>>> numeric_result("Ac-TGHVSAGWYDYNKDHYREFT-NH2 [JBS2602]")
30
>>> numeric_result("Ac-GGHVSAGWYDYNFDHYREFT-NH2 [JBS2552]")
24
>>> numeric_result("Ac-TGLVSAGWYDYNFDHYREFT-NH2 (also called parent peptide JBS2572) [JBS2572]")
14
>>> numeric_result("Ac-TGHVSAGWYDYNFDHYLEFT-NH2 [JBS2586]")
19

Query block: Give its CAT EC50 value. Item: Ac-TGHVSAGWYDYNFDSYREFT-NH2 [JBS2661]
Result block: 16

Query block: So what's the measured CAT EC50 for this one? Ac-TGHVSAGWYDYNFDHYFEFT-NH2 [JBS2625]
Result block: 29

Query block: Field request: CAT EC50 | item: Ac-TAHVSAGWYDYNFDHYREFT-NH2 [JBS2516]
Result block: 21

Query block: Fill in: CAT EC50 of Ac-TGHVSAGWYDYNLDHYREFT-NH2 [JBS2582] is ___
Result block: 15

Query block: Give the measured CAT EC50 of Ac-TGHVSAGWYDYNFDHYREFT-NH2 [JBS2512] .
Result block: 24
